molecular target: human IL-17A/F (human, UniProt Q16552 24-155; Q96PD4 31-163); test: cell-based or functional assay
Sequence (Q16552 24-155 limits assumed, chain 1 of 2): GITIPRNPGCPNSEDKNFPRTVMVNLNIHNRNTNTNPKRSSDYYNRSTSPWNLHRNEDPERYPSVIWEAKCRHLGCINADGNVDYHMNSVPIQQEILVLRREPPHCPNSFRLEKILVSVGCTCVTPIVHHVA
Sequence (Q96PD4 31-163 limits assumed, chain 2 of 2): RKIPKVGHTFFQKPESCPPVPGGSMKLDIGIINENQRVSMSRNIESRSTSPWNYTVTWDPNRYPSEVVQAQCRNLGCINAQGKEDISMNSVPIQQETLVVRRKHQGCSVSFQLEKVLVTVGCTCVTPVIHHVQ
Please go through the items and note down their Potency (nM), IL-17-driven IL-6 production in HS27 cells.
Number in nM, nothing else.

IN: I am curious: what Potency (nM), IL-17-driven IL-6 production in HS27 cells value has been reported for IL17-TN-L7-C8 (antibody, V domains shown, Fully human monoclonal antibody from mRNA display; also called IL-TN-L7-C8) VH: EVQLVQSGAEVKKPGASVKVSCKASGYTFSDFDIDWVRQATGLGLEWMGWMNPNSGNTGVAPKFRGRVSMTFNTAIRTAYLELSSLRPDDTAVYFCARSSESEGITIGFDNWGQGTLVTVSS VL: SYELTQPPSVSVSPGQTASIPCSGDKLGNRYACWYKQKPGQPPVLVIYQDNKRPSGISERYSGSNYGDTATLTITGTQAMDEADYYCQTWDSTTGSYVFGTGTKVTVLG ?
OUT: 2.6

IN: Would you mind telling me what Potency (nM), IL-17-driven IL-6 production in HS27 cells value was observed for IL17-TN-K7-B6 (antibody, V domains shown, Fully human monoclonal antibody from mRNA display) VH: EVQLVQSGAEVKKPGESLKISCKASGGSFRSYGISWVRQAPGQGLEWMGGITPILGTANYAQKFQGRVTITADESTTTAYMELSGLTSDDTAVYYCAREPNDFWNGYYTTHHFDYWGQGTPVTVSS VL: DVVMTQSPDFQSVTPKEKVTITCRASQNIGSALHWYQQKPDQSPKLLIKYASQSISGVPSRFSGSGSGTDFTLTINGLEAEDAGTYYCHQSTSLPHTFGQGTKLDIKR ?
OUT: 8.1

IN: Returns the measured Potency (nM), IL-17-driven IL-6 production in HS27 cells for the input binder. Input: IL17-TN-L7-A7 (antibody, V domains shown, Fully human monoclonal antibody from mRNA display) VH: EVQLLESGGGVVQPGTFLRLSCAATGFTFSAYGMHWVRQAPGRGLEWVAVTSYDGSNKYYADSVKGRFTISRDNSKNTLYLEMNSLRPEDTAVYYCAKVGASGDYYYSYGLDVWGQGTMVTVSS VL: QSGLTQPPSASGTPGQTVSISCSGSNSNIGSHSVNWYQQVPGAAPKLLMYGIGQRPSGVPDRFSVSQSGTSASLAISGLQSEDEADYYCATWDDSLGGYVFGSGTKVTVLG
OUT: 1.8
